Target: HIV-1 JR-CSF Env Q422A (HIV-1 (isolate JR-CSF)) (UniProt P20871)
Experiment: cell-based or functional assay

>  <binder>
PGT-126 (antibody, V domains shown) VH: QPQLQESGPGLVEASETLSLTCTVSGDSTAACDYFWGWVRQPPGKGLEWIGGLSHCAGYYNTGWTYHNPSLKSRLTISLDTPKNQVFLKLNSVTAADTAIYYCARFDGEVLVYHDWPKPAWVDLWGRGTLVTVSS VL: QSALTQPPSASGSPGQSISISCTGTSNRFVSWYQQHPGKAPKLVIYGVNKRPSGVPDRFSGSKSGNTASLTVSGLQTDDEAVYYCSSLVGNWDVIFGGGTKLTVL

>  <unitSpec>
fold

>  <Fold IC50 increase relative to wild-type>
1.1

$$$$
>  <binder>
PGT-135 (antibody, V domains shown) VH: QLQMQESGPGLVKPSETLSLSCTVSGDSIRGGEWGDKDYHWGWVRHSAGKGLEWIGSIHWRGTTHYKESLRRRVSMSIDTSRNWFSLRLASVTAADTAVYFCARHRHHDVFMLVPIAGWFDVWGPGVQVTVSS VL: EIVMTQSPDTLSVSPGETVTLSCRASQNINKNLAWYQYKPGQSPRLVIFETYSKIAAFPARFVASGSGTEFTLTINNMQSEDVAVYYCQQYEEWPRTFGQGTKVDIK

>  <unitSpec>
fold

>  <Fold IC50 increase relative to wild-type>
0.8

$$$$
>  <binder>
PGT-127 (antibody, V domains shown) VH: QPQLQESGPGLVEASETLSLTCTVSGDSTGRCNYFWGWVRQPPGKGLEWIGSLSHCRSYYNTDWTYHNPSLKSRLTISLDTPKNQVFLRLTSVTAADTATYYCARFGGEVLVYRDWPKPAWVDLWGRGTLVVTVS VL: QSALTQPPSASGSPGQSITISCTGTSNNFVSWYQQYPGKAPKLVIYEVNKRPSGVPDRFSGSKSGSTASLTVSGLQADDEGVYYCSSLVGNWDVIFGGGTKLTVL

>  <unitSpec>
fold

>  <Fold IC50 increase relative to wild-type>
0.1

$$$$
